# System: CAKI-1
# protocol: NCI tumour cell line growth inhibition, 48 h
The source made the active and inactive calls. Rule as the data show it: active = GI50 up to about 1.1 µM and inactive = higher.
Mark one answer only. Choices: y for active, n for inactive

Task: Which outcome did this test record for the compound O=CC(O)C(O)C(O)C(O)COC(=O)NCCCCC(=O)C(F)(F)C(F)(F)C(F)(F)C(F)(F)C(F)(F)C(F)(F)C(F)(F)F (stereo unspecified) ?
Result: n

Task: Which outcome did this test record for the compound c1ccc(C2(c3ccccc3)S/C(=C3/SC(c4ccccc4)(c4ccccc4)c4ccccc43)c3ccccc32)cc1 ?
Result: n

Task: Which outcome did this test record for the compound CC1=C/C(=C(/c2ccc(O)c(C)c2)c2ccccc2C(=O)O)C=CC1=O ?
Result: n

Task: Which outcome did this test record for the compound C[C@]12Cc3cnn(-c4ccc(F)cc4)c3NC1CC[C@@H]1C2CC[C@@]2(C)C1CC[C@@H]2O (stereo partly specified) ?
Result: n

Task: Which outcome did this test record for the compound COc1ccc(-c2nnc(CCCCCCCCc3nnc(-c4ccc(OC)cc4)o3)o2)cc1 ?
Result: n

Task: Which outcome did this test record for the compound O=S1(=O)OCCCOS(=O)(=O)C1(Br)Br ?
Result: n

Task: Which outcome did this test record for the compound CC1=C2C(=CC(C)(C)[C@@H]2O)C(=O)[C@](C)(O)C12CC2 [ILLUDIN M] ?
Result: y

Task: Which outcome did this test record for the compound Cc1cccc(CC(Cc2ccc(C)cc2C(=O)O)C(=O)O)c1 (stereo unspecified) ?
Result: n

Task: Which outcome did this test record for the compound CCOC(OC1=C(C#N)CCCC1)C(C)[Se]c1ccccc1 (stereo unspecified) ?
Result: n

Task: Which outcome did this test record for the compound CC(C)=CC(=O)N(C)C1C2CN3CCC(O2)C13 (stereo unspecified) ?
Result: n

Task: Which outcome did this test record for the compound COc1cc2c(c3c1c(=O)c1ccccc1n3C)C=CC(C)(C)O2 [ACRONINE] ?
Result: n

====

# Tested on: Hs-578T
# protocol: NCI tumour cell line growth inhibition, 48 h
Active and inactive are the calls of the source. No stated cut-off is given here; in the data, active = GI50 up to about 1.1 µM and inactive = higher.
Mark one answer only. Choices: active, inactive

Task: Which outcome did this test record for the molecule COC(=O)[C@H](CNC(=O)/C=C/c1ccc(OC(C)=O)c(OC(C)=O)c1)NC(=O)/C=C/c1ccc(OC(C)=O)c(OC(C)=O)c1 ?
Result: inactive

Task: Which outcome did this test record for the molecule C=CC1(c2ccc(-c3ccccc3)cc2)OCCO1 ?
Result: inactive

Task: Which outcome did this test record for the molecule SC1=Nc2ccccc2-c2nc(-c3ccccc3)cc(-c3ccc(Br)cc3)c2C1 ?
Result: active

Task: Which outcome did this test record for the molecule COc1ccccc1C1(c2c(OC(C)C)c(=O)c2=O)SCCCS1 ?
Result: inactive

Task: Which outcome did this test record for the molecule COc1nncc2[nH]c(-c3ccccc3)cc12 ?
Result: inactive

Task: Which outcome did this test record for the molecule CC(=O)OCC1OC(n2c3c(c(-c4ccco4)c(C#N)c2=S)CCCC3)C(OC(C)=O)C(OC(C)=O)C1OC(C)=O (configuration not stated) ?
Result: inactive

Task: Which outcome did this test record for the molecule COc1ccc2nc3cc([N+](=O)[O-])ccc3c(NNc3ccc(Cl)cc3)c2c1 ?
Result: inactive

Task: Which outcome did this test record for the molecule COc1ccc2c(ccc3c(C(=O)NCCCN(C)CCCNC(=O)c4cn(C)c5c4ccc4cc(OC)ccc45)cn(C)c32)c1 ?
Result: inactive

Task: Which outcome did this test record for the molecule N#Cc1ccc(C2Oc3ccc(Cl)cc3C=C2[N+](=O)[O-])cc1 (configuration not stated) ?
Result: inactive

Task: Which outcome did this test record for the molecule O=C1C(Cl)=C(Nc2ccc(S(=O)(=O)O)cc2)C(=O)c2ccccc21 ?
Result: inactive

Task: Which outcome did this test record for the molecule CC(CCOc1ccc2ccc(=O)oc2c1)C1=CC(=O)C(C)(C)O1 (configuration not stated) ?
Result: inactive

Task: Which outcome did this test record for the molecule c1ccc(C2(c3ccccc3)S/C(=C3/SC(c4ccccc4)(c4ccccc4)c4ccccc43)c3ccccc32)cc1 ?
Result: inactive
